Assign Population Apoptotic (%) to each entry below.
tested on: HEK-293T; experiment: Multiplex assay against HEK293T; format: toxicity, cell-based; details: human, 48 h, 1 µM, compound concentration 1 uM, replicate 1
All answers are understood in %, so give the number only.

Entry CC(=O)NCCc1c(Cc2ccccc2)[nH]c2ccccc12 : reported Population Apoptotic (%) = ?
24

And for CN(C)c1ccnc2sc3c(=O)n(N4CCCCCC4)cnc3c12 ?
27

Try this compound too: O=C1COc2nccc(-c3ccccc3F)c2CN1Cc1cc(C(F)(F)F)cc(C(F)(F)F)c1
27

What about CCCn1c(=O)c2[nH]c(C3CCCC3)nc2n(CCC)c1=O ?
33

Next record, please: O=C(NCC(=O)N1CC[C@H](N[C@H]2CC[C@@](O)(c3ccc(-c4ncccn4)cn3)CC2)C1)c1cccc(C(F)(F)F)c1
18

// query: Cc1nc2ccc(Oc3ccc(F)cc3)cc2c(=O)n1C[C@H]1CCCN(C(C)C)C1.Cl
27

// next record COc1c(C)cc(NC(=O)c2nn(Cc3ccc(F)cc3)c3c2CN(C(=O)c2ccc[nH]2)C[C@]3(C)C(N)=O)cc1C
21

---

So I've got a bunch of molecules here, and I need their Population Tubulin-Different-Phenotype (%) values.
system: HEK-293T; assay: Multiplex assay against HEK293T; assay type: toxicity, cell-based; conditions: human, 24 h, 10 µM, compound concentration 10 uM, replicate 1
Provide only the numeric value, understood in %.

Given CN1CCN(c2nc3cc(C(F)(F)F)ccc3n3cccc23)CC1.O=C(O)/C=C\C(=O)O.O=C(O)/C=C\C(=O)O , state its recorded Population Tubulin-Different-Phenotype (%).
62

What do we get for CNC[C@H](O)c1ccc(O)c(O)c1 [EPINEPHRINE] ?
36

Then this molecule: CC(=O)NCCc1c(Cc2ccccc2)[nH]c2ccccc12
32

And COc1ccc2c(c1)C(C(=O)N(Cc1ccc(N(C)C)cc1)c1ccc(C(C)C)cc1)CCC2.Cl (configuration not stated) ?
70

Can you check CC1(COc2ccc3c(c2)ncn3-c2ccc3cccc(N4CCC(N)CC4)c3n2)COC1 next?
92

# repeat for Cl.Clc1ccc2nsnc2c1NC1=NCCN1 [TIZANIDINE HYDROCHLORIDE]
18

Also CSc1ccccc1N1CCN(CCCCCC(=O)NC2CCCc3ccccc32)CC1.Cl (configuration not stated) ?
53

// query: CCOc1c2c(c(OCC)c3ncccc13)CN(c1ccc(CS(=O)(=O)NC(=O)Cc3ccccc3OC)cc1C)C2=O
28

Now give it for Cc1nc2ccc(Oc3ccc(F)cc3)cc2c(=O)n1C[C@H]1CCCN(C(C)C)C1.Cl too.
70

And what about the molecule COc1ccccc1N1CCN(CCCCNC(=O)c2ccc3ccccc3c2)CC1.Cl ?
87

Entry Oc1c(CN2CCN(c3ccccn3)CC2)cc(Cl)c2cccnc12 please
19

Also check C[C@H]1[C@H]2CC[C@H]3[C@@H]4CC=C5C[C@@H](N(C)C)CC[C@]5(C)[C@H]4CC[C@]23CN1C
28

Try this molecule next: O=C(O)Cc1ccccc1Nc1c(Cl)cccc1Cl
29

Also, COc1c(C)cc(NC(=O)c2nn(Cc3ccc(F)cc3)c3c2CN(C(=O)c2ccc[nH]2)C[C@]3(C)C(N)=O)cc1C please.
61

Then this molecule: O=C(NCC(=O)N1CC[C@H](N[C@H]2CC[C@@](O)(c3ccc(-c4ncccn4)cn3)CC2)C1)c1cccc(C(F)(F)F)c1
36

Check CC[C@H]1OC(=O)[C@H](C)[C@@H](O[C@H]2C[C@@](C)(OC)[C@@H](O)[C@H](C)O2)[C@H](C)[C@@H](O[C@@H]2O[C@H](C)C[C@H](N(C)C)[C@H]2O)[C@@]2(C)CC(C)=C(O2)[C@H](C)[C@@H](O)[C@]1(C)O too.
75

What do we get for C[C@@H]1C[C@H]2[C@@H]3CCC4=CC(=O)C=C[C@]4(C)[C@@]3(F)[C@@H](O)C[C@]2(C)[C@@]1(O)C(=O)CO ?
29

What do we get for O=C(NCCO)c1cccc(-c2cc(Nc3ccc(OC(F)(F)F)cc3)ncn2)c1 ?
38

Now consider CN1CCN2c3ncccc3Cc3ccccc3C2C1 (configuration not stated) and answer again.
28

Entry to check: COc1cc(C(=O)N(CCCc2ccccc2)Cc2ccc(CC(=O)O)cc2)cc(OC)c1C
43

What about C[C@H](NC(=O)c1c(C(F)F)nn(C)c1Oc1cccc(C(F)(F)F)c1)c1ccc(C(=O)O)cc1 ?
29

Proceed to O=C(O)c1cc2ccccc2c(Cc2c(O)c(C(=O)O)cc3ccccc23)c1O
22

Item: Cc1ccc(F)cc1C(=O)Nc1ccc(C(=O)N2Cc3cccn3Cc3ccccc32)c(Cl)c1
71

Field entry: N[C@@]1(C(=O)O)CO[C@H]2[C@H](C(=O)O)[C@H]21
15

Also check Cc1ccc(/C(=C\CN2CCCC2)c2ccccn2)cc1
43

# repeat for CCCn1c(=O)c2[nH]c(C3CCCC3)nc2n(CCC)c1=O
40

Subsequent entry: CCCC(CCC)C(=O)O
15

Another molecule to look at: CC(C)(C)c1ccc(S(=O)(=O)Nc2ccc(Cl)cc2C(=O)c2cc[n+]([O-])cc2)cc1
20

Same again, this time with CN(C)CCCc1cc(C(=O)Nc2ccc(-c3ccncc3)cc2)ccc1O.Cl.Cl
23

Next: CN(C)c1ccnc2sc3c(=O)n(N4CCCCCC4)cnc3c12
71

Next: N#Cc1c(N)nc(SCc2csc(-c3ccc(Cl)cc3)n2)c(C#N)c1-c1ccc(OCCO)cc1
62

Same question for O=C1COc2nccc(-c3ccccc3F)c2CN1Cc1cc(C(F)(F)F)cc(C(F)(F)F)c1 please.
68
